- Tested on: Influenza B Massachusetts virus
- assay.method.text: Influenza B Mass. in mice, oral; late read day 5 (Table 39), 7 (Table 40), 11 (Tables 61, 65); control fraction 16/20 (Table 61), else 100%
- Assay type: in vivo, mouse
- experimental.context: total dose .05 μg (50 ng)
No. animals surviving after 5 days (Table 61: 11 days) for assorted molecules
readout.name: No. animals surviving after 5 days (Table 61: 11 days)

[[record]]
molecule = "NNC(N)=O [semicarbazide]"
assay_system = "Influenza B Massachusetts virus"
numeric_value = 6

[[record]]
molecule = "N#CCC(=O)NN [Cyonacetic Acid Carbazide, Cyanoacetic Acid Hydrazide]"
assay_system = "Influenza B Massachusetts virus"
numeric_value = 4

[[record]]
molecule = "NNC(=O)c1ccncc1 [Isoniazid, isoniazid, reference compound]"
assay_system = "Influenza B Massachusetts virus"
numeric_value = 3

[[record]]
molecule = "NC(=S)NN=C1CCCCC1 [Cyclohexanone, thiosemicarBazone, Cyclohexanone, thiosemicarbazone]"
assay_system = "Influenza B Massachusetts virus"
numeric_value = 7

